Test system: MCF-7 cells
Experiment: Cytotoxicity study by MTT proliferation assay
Format: cell-based
Conditions: Homo sapiens, MCF7, inhibition of cell growth, 72 h, read-out: MCF-7 % Inh ± DS (10 μM)
Outcome Measure: inhibition at 10 µM (%)
Return type: number; implicit unit %.

INSERT INTO results (compound, quantitative_readout) VALUES
  ('O=C1C=Cc2cccc3cccc1c23', 16);

### Prompt Reported inhibition at 10 µM, compound COc1ccc(Nc2ccc3cccc4c3c2C(=O)C=C4)cc1 : ____
### Response 1

### Prompt Which value of inhibition at 10 µM has been reported for CCOC(=O)c1cc2cccc3c2c(c1O)C(=O)C=C3 in the records?
### Response 0

### Prompt So what's the measured inhibition at 10 µM for this one? NC(=O)c1ccc2cccc3c2c1C(=O)C=C3 [Compound 19, 1-oxo-1H-phenalene-9-carboxamide]
### Response 0

### Prompt What value of inhibition at 10 µM has been recorded for this entry: Cc1cccc(C)c1Nc1ccc2cccc3c2c1C(=O)C=C3
### Response 0

----------
Test system: MCF-7 cells
Test: Cytotoxicity study by MTT proliferation assay
Assay type: cell-based
Conditions: Homo sapiens, MCF7, inhibition of cell growth, 72 h, read-out: MCF-7 % Inh ± DS (10 μM)
# inhibition at 10 µM listing for each entry below
Expressed in %, but write only the number.

Sample answers from the record:
INSERT INTO assay_data (compound, outcome_measure, unit_name, quantitative_readout) VALUES
  ('COc1ccccc1-c1ccc2cccc3c2c1C(=O)C=C3', 'inhibition at 10 µM', '%', 15),
  ('COc1ccc(-c2ccc3cccc4c3c2C(=O)C=C4)cc1', 'inhibition at 10 µM', '%', 15),
  ('O=C1C=Cc2cccc3ccc(-c4ccccc4)c1c23', 'inhibition at 10 µM', '%', 6),
  ('N#Cc1ccc(-c2ccc3cccc4c3c2C(=O)C=C4)cc1', 'inhibition at 10 µM', '%', 10),
  ('COc1cccc2c1C(=O)c1c(O)c3c(c(O)c1C2=O)C[C@@](O)(C(=O)CO)C[C@@H]3O[C@H]1C[C@H](N)[C@H](O)[C@H](C)O1 [Adriamycin, reference compound]', 'inhibition at 10 µM', '%', 63),
  ('O=C1C=Cc2c(O)ccc3ccc(O)c1c23 [Compound 30, 4,9-dihydroxy-1H-phenalen-1-one]', 'inhibition at 10 µM', '%', 16),
  ('COc1cccc(-c2ccc3cccc4c3c2C(=O)C=C4)c1', 'inhibition at 10 µM', '%', 12);

--- query ---
### Prompt Please look up its inhibition at 10 µM: O=C1C(Nc2ccc(Cl)cc2)=Cc2cccc3cccc1c23 [Compound 22, 2-[(4-chloroanilino]-1H-phenalen-1-one]
### Response 42

----------
Test system: MCF-7 cells
Experiment: Cytotoxicity study by MTT proliferation assay
Format: cell-based
Details: Homo sapiens, MCF7, inhibition of cell growth, 72 h, read-out: MCF-7 % Inh ± DS (10 μM)
Outcome Measure: inhibition at 10 µM

### Prompt // query inhibition at 10 µM value for entry O=C1C(Br)=Cc2cccc3cccc1c23 [Compound 2, 2-Bromo-1H-phenalen-1-one]
### Response 2%

### Prompt Can you share its inhibition at 10 µM? I mean this compound: COc1ccc2c3c(cncc13)C(=O)C=C2 [Compound 36, 9-methoxy-4H-benzo[de]isoquinolin-4-one]
### Response 5%

### Prompt I have this compound here, O=C1C=Cc2cccc3ccc(O)c1c23 [Compound 9-OH, 9-hydroxy-1H-phenalen-1-one] , and I need its recorded inhibition at 10 µM.
### Response 6%

### Prompt // query inhibition at 10 µM value for entry O=C1C(Nc2ncccn2)=Cc2cccc3cccc1c23 [Compound 25]
### Response 16%
